Target: T1, recombinant mouse IL-17A (SEQ ID NO: 83) (mouse, UniProt Q62386 26-158)
T1 sequence: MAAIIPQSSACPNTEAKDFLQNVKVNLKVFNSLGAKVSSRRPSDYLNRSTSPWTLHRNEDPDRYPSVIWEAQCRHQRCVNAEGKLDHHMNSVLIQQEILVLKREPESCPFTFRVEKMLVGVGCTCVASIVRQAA
Assay: cell-based or functional assay
IC50, KC secretion by CMT-93 cells; stimulus mIL-17A (0.15 nM) values, listed per item
# value in nM; strip the unit string

Lookup: # get_value(readout='IC50, KC secretion by CMT-93 cells; stimulus mIL-17A (0.15 nM)', item= XAB1 (antibody, human IgG1, kappa, V domains shown, human IgG1/kappa monoclonal antibody; also called parental XAB1; XAB1 IgG) VH: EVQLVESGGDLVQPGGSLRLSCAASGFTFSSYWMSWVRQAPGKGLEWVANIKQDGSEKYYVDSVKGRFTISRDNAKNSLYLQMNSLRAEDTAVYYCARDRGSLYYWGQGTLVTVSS VL: AIQLTQSPSSLSASVGDRVTITCRPSQGIISALAWYQQKPGKAPKLLIYDASSLENGVPSRFSGSGSGTDFTLTISSLQPEDFATYYCQQFNSYPLTFGGGTKVEIKR )
Found: 128

Lookup: Same lookup for XAB5 (antibody, human IgG1, kappa, V domains shown) VH: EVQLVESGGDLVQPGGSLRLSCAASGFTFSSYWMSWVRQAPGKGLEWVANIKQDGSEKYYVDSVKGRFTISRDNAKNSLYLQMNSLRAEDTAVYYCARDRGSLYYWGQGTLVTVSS VL: AIQLTQSPSSLSASVGDRVTITCRPSQGINWELAWYQQKPGKAPKLLIYDASSLENGVPSRFSGSGSGTDFTLTISSLQPEDFATYYCQQFNSYPLTFGGGTKVEIKR , please.
Found: 7.8

Lookup: Same lookup for XAB2 (antibody, human IgG1, kappa, V domains shown) VH: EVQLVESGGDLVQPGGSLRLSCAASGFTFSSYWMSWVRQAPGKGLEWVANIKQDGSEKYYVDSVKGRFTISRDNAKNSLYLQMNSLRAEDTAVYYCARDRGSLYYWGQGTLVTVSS VL: AIQLTQSPSSLSASVGDRVTITCRPSQVIISALAWYQQKPGKAPKLLIYDASSLEQGVPSRFSGSVSGTDFTLTISSLQPEDFATYYCQQFDSYPLTFGGGTKVEIKR , please.
Found: 20.9

Lookup: Same lookup for XAB4 (antibody, human IgG1, kappa, V domains shown, also called MB435 N56Q) VH: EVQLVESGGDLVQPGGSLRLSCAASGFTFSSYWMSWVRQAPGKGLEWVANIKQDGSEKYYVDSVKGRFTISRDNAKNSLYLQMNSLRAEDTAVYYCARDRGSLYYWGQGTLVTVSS VL: AIQLTQSPSSLSASVGDRVTITCRPSQGINWELAWYQQKPGKAPKLLIYDASSLEQGVPSRFSGSGSGTDFTLTISSLQPEDFATYYCQQFNSYPLTFGGGTKVEIKR , please.
Found: 7
